I'd appreciate it if you could supply % Binding retained on T-cells, 60° C. values for the items below.
# Target Entity: T1, CD3 on primary human pan T cells (human, UniProt P07766 23-207)
# T1 construct: on cells it stands in the TCR/CD3 complex; also called Pan T-cells (CD3-positive); endogenous CD3
# T1 sequence (P07766 23-207 limits assumed): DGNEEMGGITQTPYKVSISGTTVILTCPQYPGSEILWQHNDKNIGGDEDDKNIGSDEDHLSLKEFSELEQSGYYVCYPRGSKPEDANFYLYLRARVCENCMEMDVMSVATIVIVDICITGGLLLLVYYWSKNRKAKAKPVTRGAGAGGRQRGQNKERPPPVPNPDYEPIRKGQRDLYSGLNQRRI
# Test: flow cytometry, pan T-cells
// note: answer is a bare numeric in fraction

### Prompt Entry CD3B2078 (scFv) scFv: QVQLVQSGAEVKKPGSSVKVSCKASGYTFTRSTMHWVRQAPGQGLEWIGYINPSSAYTNYAQKFQGRVTLTADKSTSTAYMELSSLRSEDTAVYYCASPQVHYDYNGFPYWGQGTLVTVSSGGSEGKSSGSGSESKSTGGSEIVLTQSPATLSASPGERVTLSCSASSSVSYMNWYQQKPGTSPRRLIYDSSKLASGVPARFSGSGSGRDYTLTISSLEPEDFAVYYCQQWSRNPPTFGGGTKVEIK : reported % Binding retained on T-cells, 60° C. = ?
### Response 0.762

### Prompt Entry CD3B2031 (scFv) scFv: QVQLVQSGAEVKKPGSSVKVSCKASGYTFTRSTMHWVKQAPGQGLEWMGYINPSSAYTNYNQKFQGRVTLTADKSTSTAYMELSSLRSEDTAVYYCASPQVHYDYNGFPYWGQGTLVTVSSGGSEGKSSGSGSESKSTGGSEIVLTQSPATLSASPGERVTLSCSASSSVSYMNWYQQKPGTAPRRWIYDSSKLASGVPARFSGSGSGRDYTLTISSLEPEDFAVYYCQQWSRNPPTFGGGTKVEIK : reported % Binding retained on T-cells, 60° C. = ?
### Response 1.2

### Prompt Entry CD3B2033 (scFv) scFv: QVQLVQSGAEVKKPGSSVKVSCKASGYTFTRSTMHWVKQAPGQGLEWMGYINPSSAYTNYNQKFQGRVTLTADKSTSTAYMELSSLRSEDTAVYYCASPQVHYDYNGFPYWGQGTLVTVSSGGSEGKSSGSGSESKSTGGSEIVLTQSPATLSASPGERVTLSCSASSSVSYMNWYQQKPGTAPRRLIYDSSKLASGVPARFSGSGSGRDYTLTISSLEPEDFAVYYCQQWSRNPPTFGGGTKVEIK : reported % Binding retained on T-cells, 60° C. = ?
### Response 1

### Prompt Entry CD3B2044 (scFv) scFv: QVQLVQSGAEVKKPGSSVKVSCKASGYTFTRSTMHWVRQAPGQGLEWIGYINPSSAYTNYNQKFQGRVTLTADKSTSTAYMELSSLRSEDTAVYYCASPQVHYDYNGFPYWGQGTLVTVSSGGSEGKSSGSGSESKSTGGSEIVLTQSPATLSASPGERVTLSCSASSSVSYMNWYQQKPGQSPRRWIYDSSKLASGVPARFSGSGSGRDYTLTISSLEPEDFAVYYCQQWSRNPPTFGGGTKVEIK : reported % Binding retained on T-cells, 60° C. = ?
### Response 1.04
